- System name: Calmodulin-1 (Homo sapiens)
- Test details: calcium-bound CALM1 binders on microarrays, profiling panel, artefact control for SMM control-protein annotation, biochemical, small-molecule microarray, Cy5-labelled CALM1, plus calcium (AID 1112);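 further: score merges spot fluorescence with signal to noise from triplicate slides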
- Condition label: Cy5-CALM1 binding fluorescence, higher = more signal
The label depends only on composite z-score: 1 (yes) if it is at least 0.5, 0 (no) if it is smaller.

- Compound: "COc1ccc(C#Cc2ccc3c(c2)[C@]2(C(=O)N3)[C@H](C(=O)N3CCCCCCC3)[C@H]3C(=O)O[C@H](c4ccccc4)[C@H](c4ccccc4)N3[C@@H]2c2ccc(O)cc2)cc1"
  Class name: "0 (no)"
- Compound: "COC(=O)c1c2oc(c1C(=O)OC)C(=O)N1CCC[C@H]1Cn1nncc1CN(Cc1ccccc1)C(=O)N[C@H](CO)CC2"
  Class name: "0 (no)"
- Compound: "CC(C)C[C@@H]1NC(=O)CNC(=O)[C@@]23C(=O)N[C@@H](Cc4ccccc4)C2[C@H](C)[C@@]2(C)O[C@H]2C3/C=C/C/C=C\\CNC1=O (some centres undefined)"
  Class name: "0 (no)"
- Compound: "O=C(O)[C@@H]1C[C@@H]2C(=O)N3CCC[C@H]3C(=O)N2[C@@H]1c1cccc(OCCO)c1"
  Class name: "1 (yes)"
- Compound: "COc1cc(NN2C(C(O)C3CCCCC3)C=CC3C(=O)N(C)C(=O)C32)cc(OC)c1OC (centres undefined)"
  Class name: "1 (yes)"
- Compound: "NC(=O)N1C(=O)C2C(C1=O)C1C=C(CCCO)C2C(C2CC2)N1Cc1cccc(OC(F)(F)F)c1 (centres undefined)"
  Class name: "0 (no)"
- Compound: "O=C1C[C@@](C(=O)NCC(F)(F)F)(c2ccc([N+](=O)[O-])cc2)[C@@H](c2ccc(CO)cc2)N1CC12CC3CC(CC(C3)C1)C2"
  Class name: "1 (yes)"
- Compound: "COc1ccc(CCNC(=O)[C@@]2(Cc3ccccc3I)c3ccccc3C(=O)N(Cc3ccccc3Cl)[C@H]2c2ccc(CO)cc2)cc1"
  Class name: "0 (no)"
- Compound: "CCOC(=O)C1=CCC(c2ccco2)N(S(=O)(=O)c2ccc(C)cc2)C1 (centres undefined)"
  Class name: "0 (no)"
- Compound: "C=CCC(OC(C)=O)[C@@H]1[C@@H](N(Cc2cccc3ccccc23)C(=O)c2cccc3ccccc23)c2cc(OCCCO)ccc2N1C(=O)c1ccc2ccccc2c1 (some centres undefined)"
  Class name: "0 (no)"
- Compound: "COCCOC(=O)N1C(=O)[C@@]2(c3cc(C#CC4=CCCCC4)ccc31)[C@H](C(=O)N1CCCCCCC1)[C@H]1C(=O)O[C@H](c3ccccc3)[C@H](c3ccccc3)N1[C@@H]2c1ccc(OCCO)cc1"
  Class name: "1 (yes)"
- Compound: "COc1ccc(C(O)C2C=CC3C(=O)N(c4ccccc4)C(=O)C3N2Nc2ccccc2F)cc1 (centres undefined)"
  Class name: "0 (no)"
- Compound: "COCCOC(=O)N1C(=O)[C@@]2(c3cc(C#Cc4ccc(OC)cc4)ccc31)[C@H](C(=O)NC[C@H](O)c1ccccc1)[C@H]1C(=O)O[C@H](c3ccccc3)[C@H](c3ccccc3)N1[C@@H]2c1ccc(OCCO)cc1"
  Class name: "0 (no)"
- Compound: "CCCCCN1CC=CC23O[C@@H]4C=CCOC(=O)[C@@H]4[C@H]2C(=O)N(CCO)[C@@H]3C1=O (some centres undefined)"
  Class name: "1 (yes)"
